Can you tell me EC50 for the items I'm about to list?
# tested-system: T1, Mutant Human HTT Exon 1 48Q (GST) (human)
# T1 construct: recombinant His- and GST-tagged fusion; also called HTT Exon 1 Q48; 48Q HTT Exon-1
# T1 sequence (chain, as listed by the source mutant limits assumed): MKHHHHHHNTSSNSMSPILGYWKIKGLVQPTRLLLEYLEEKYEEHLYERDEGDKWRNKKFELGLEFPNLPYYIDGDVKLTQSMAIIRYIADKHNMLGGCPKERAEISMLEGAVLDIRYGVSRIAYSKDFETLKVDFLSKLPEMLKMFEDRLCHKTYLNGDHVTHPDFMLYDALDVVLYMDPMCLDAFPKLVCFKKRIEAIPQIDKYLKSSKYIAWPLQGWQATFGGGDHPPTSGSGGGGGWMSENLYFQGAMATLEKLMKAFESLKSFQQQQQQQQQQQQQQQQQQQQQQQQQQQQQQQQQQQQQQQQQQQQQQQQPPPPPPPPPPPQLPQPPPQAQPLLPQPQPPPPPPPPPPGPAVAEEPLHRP
# assay-procedure: HTT sandwich ELISA, experiment 1 (133 nM starting concentration)
Give bare numbers, in nM.

* ATL_0006204 (antibody, V domains shown, expressed in IgG1 format; also called ATL_6204) VH: EVQLVESGGGLVKPGGSLRLSCAASGFTFNKAWMSWVRQAPGKGLEWVGRIKSGIDAGTTDYAAPVKGRFTISRDDSKNTLYLQMNSLKTEDTAVYYCIPPPYYYYYGLDVWGQGTTVTVSS VL: QSALTQPRSVSGSPGQSVTISCTGTSSDVGSYNLVSWYQQHPGKAPKLMIYEVNKRPSGVPDRFSGSKSGATASLTISGLQAEDEADYYCVSFAGTANVFGTGTKVTVL | 16.2
* ATL_0006203 (antibody, V domains shown, expressed in IgG1 format; also called ATL_6203) VH: EVQLVESGGGLVKPGGSLRLSCAASGFTFNKAWMSWVRQAPGKGLEWVGRIKSGIDAGTTDYAAPVKGRFTISRDDSKNTLYLQMNSLKTEDTAVYYCIPSPYYYYYGLDVWGQGTTVTVSS VL: QSALTQPRSVSGSPGQSVTISCTGTSSDVGSYNLVSWYQQHPGKAPKLMIYEVNKRPSGVPDRFSGSKSGATASLTISGLQAEDEADYYCVSYAGTANVFGTGTKVTVL | 8.91

Memo: ATL_0006195 (antibody, V domains shown, expressed in IgG1 format; also called ATL_6195) VH: EVQLVESGGGLVKPGGSLRLSCAASGFTFNKAWMSWVRQAPGKGLEWVGRIKSGIDAGTTDYAAPVKGRFTISRDDSKNTLYLQMNSLKTEDTAVYYCTPPPYYYYYGLDVWGQGTTVTVSS VL: QSALTQPRSVSGSPGQSVTISCTGTSSDVGSYNLVSWYQQHPGKAPKLMIYEVNKRPSGVPDRFSGSKSGATASLTISGLQAEDEADYYCGSYAGTANVFGTGTKVTVL , reported EC50: 21.1
